target system: T1, CD3D&E protein (Cat #: CT038-H2508H, Sino Biological) (human, UniProt P04234 22-105; P07766 23-126)
T1 construct: Bought complex of the delta and epsilon chains; also called CD3D&E complex; human CD3D&E complex
T1 sequence (P04234 22-105, form in doubt, chain 1 of 2): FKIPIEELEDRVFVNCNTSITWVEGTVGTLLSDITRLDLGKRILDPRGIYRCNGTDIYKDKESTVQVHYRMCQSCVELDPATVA
T1 sequence (P07766 23-126, form in doubt, chain 2 of 2): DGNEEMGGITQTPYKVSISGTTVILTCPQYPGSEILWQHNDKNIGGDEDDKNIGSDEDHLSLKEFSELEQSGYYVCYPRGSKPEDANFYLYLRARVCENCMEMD
test name: ELISA, coated CD3D&E
measurement name: EC50 (ng/mL)
Express it in ng/mL; write the number only.

Problem: What does the record list as EC50 for anti-CD3D&E antibody 7-1A12, full-length human IgG1 (L234A/L235A/N297A)/kappa (antibody, V domains shown) VH: EVQLVESGGGLVQPGRSLRLSCAASGFTFSDYTMHWVRQAPGKGLEWVSGISWNTGTIGYADSVKGRFTISRDNAKKSLYLQMNSLRAEDTALYYCAKDNSGYGHYYFGMDVWGQGTTVTVAS VL: EIVMTQSPATLSVSPGERATLSCRASQSVSRNVAWYQQKPGQAPRLLIYGASTRQTGIPARFSGSGSGTEFTLTISSLQSEDFAVYYCQSYINWPLQFGGGTKVEIKR ?
Solution: 4.02

Problem: Return reported EC50; argument: anti-CD3D&E antibody D12A4, full-length human IgG1 (L234A/L235A/N297A)/kappa (antibody, V domains shown) VH: EVQLVESGGGLVQPGRSLRLSCAASGFTFGDYAMHWVRQAPGKGLEWVSGISWNHGHIGYADSVKGRFTISRDNAKKSLYLQMNSLRAEDTALYYCAKDNSGYGHYYYGMDVWGQGTTVTVAS VL: EIVMTQSPATLSVSPGERATLSCRASRSVSRNLAWYQQKPGQAPRLLIYGASTKPTGIPARFSGSGSGTEFTLTISSLQSEDFAVYYCQHYTNWPLRFGGGTKVEIKR
Solution: 22.6

Problem: Item under review: anti-CD3D&E antibody D8E5, full-length human IgG1 (L234A/L235A/N297A)/kappa (antibody, V domains shown) VH: EVQLVESGGGLVQPGRSLRLSCAASGFTFDSYSMHWVRQAPGKGLEWVSGISWNSGSLGYADSVKGRFTISRDNAKKSLYLQMNSLRAEDTALYYCAKDRSGYGHYYYGMDVWGQGTTVTVAS VL: EIVMTQSPATLSVSPGERATLSCRASRSVSLNVAWYQQKPGQAPRLLIYGASTKYTGIPARFSGSGSGTEFTLTISSLQSEDFAVYYCQQYINWPLTFGGGTKVEIKR . Reported EC50?
Solution: 8.16

Provenance of the data: patent US20230348630A1
